Cited source: the supplement of paper PMC10567573

B1: INTS4 (parent)
chain: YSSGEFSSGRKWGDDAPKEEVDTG

# Variants of: B1
# test: protein stability index of a GFP-peptide fusion (GPS, HEK-293T) (PSI 1-6); higher = more stable;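 also: lentivirally expressed fusions sorted by FACS into six bins by GFP to DsRed ratio, PSI derived from sequencing read proportions per bin multiplied by bin number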
# condition-summary: c terminus: a fixed tail appended
Rule: 1 for protein stability index not less than 2, -1 for anything less.

A selection of reference data follows.
mutation-string	discrete-label
R10H	1
P17M	1
S3V	1
S2N	1
G13V	1
D22W	-1

Kindly determine if protein stability index recorded for E20T is above or exactly 2.
1

Kindly determine if protein stability index recorded for D14K is above or exactly 2.
-1

Kindly determine if protein stability index recorded for K11E is above or exactly 2.
1

Kindly determine if protein stability index recorded for K11W is above or exactly 2.
-1

Kindly determine if protein stability index recorded for G24S is above or exactly 2.
1
